// GI50 lookup, one value per entry
Test system: OVCAR-5 ovarian
Experiment: NCI tumour cell line growth inhibition, 48 h

| molecule | quantityMeasured | readoutValue |
| --- | --- | --- |
| CCCCCCCCCCCCCC(=O)C(C)N (stereo not given) | GI50 | 10.6 µM |
| O=C(NNS(=O)(=O)c1ccc(F)cc1)c1cccnc1Nc1ccc(Cl)cc1Cl | GI50 | 52.2 µM |
| Cc1cccc2c1O/C(=C\c1ccc([N+](=O)[O-])o1)C2=O | GI50 | 1.79 µM |

Query :: Which GI50 is listed for C1=C(c2ccccc2)C(c2ccc(OCCN3CCCCC3)cc2)Oc2ccccc21 (stereo not given) ?
Result :: 1.61 µM

Query :: Which GI50 is listed for CC(=O)[C-](C(C)=O)c1ccccc1.CC(=O)[C-](C(C)=O)c1ccccc1.CC[O-].CC[O-].[Ti+4] ?
Result :: > 100 µM

* * *

// TGI lookup, one value per entry
Test system: SK-MEL-2 melanoma
Assay: NCI tumour cell line growth inhibition, 48 h

These recorded examples may help you get a feel for the data.
| molecule | quantityMeasured | readoutValue |
| --- | --- | --- |
| CN(NC(=O)/C(=C\c1ccco1)NC(=O)c1ccccc1)c1cn[nH]c(=O)c1Cl | TGI | > 100 µM |
| COc1cc2cc(Oc3ccc(NC(=O)Nc4ccc(Cl)c(C(F)(F)F)c4)cc3)c(C)nc2cc1OC | TGI | 1.94 µM |
| CN(C)CC1(Cc2ccccc2)CCC(Cc2ccccc2)C1=O (centres undefined) | TGI | 27.3 µM |
| COc1ccc(C2c3cc4c(cc3OC(O)(CO)C2C(=O)O)OCO4)cc1 (centres undefined) (tested in a mixture with another compound) | TGI | 71.8 µM |
| O=[N+]([O-])[O-].O=[N+]([O-])[O-].[Au].[Au].c1ccc([P-]c2ccccc2)cc1.c1ccc([P-]c2ccccc2)cc1 | TGI | 58.1 µM |
| N[C@@H]1CCCC[C@@H]1N.O=C([O-])CN(CP(=O)([O-])[O-])CP(=O)([O-])[O-].[Pt+2] | TGI | > 100 µM |
| COC(=O)CCc1cccnc1/C=N/O | TGI | > 100 µM |
| CC1(C)CC(=O)c2c(nc(SSc3nc4c(c(-c5ccc(Br)cc5)c3C#N)C(=O)CC(C)(C)C4)c(C#N)c2-c2ccc(Br)cc2)C1 | TGI | > 10 µM |

Query :: Which TGI is listed for C/C(=N\Nc1nc2ccccc2o1)c1cc(C)ncn1 ?
Result :: 32.7 µM

Query :: Which TGI is listed for COc1ccc(C(=O)COc2cccc(/C=C3\CSc4ccc(Cl)cc4C3=O)c2)cc1 ?
Result :: 25.1 µM

Query :: Which TGI is listed for CCOc1ccc2ccc3cccnc3c2n1 ?
Result :: > 100 µM

Query :: Which TGI is listed for COC(=S)OC1CC(n2cnc3c(N)ncnc32)OC1CO[Si](C)(C)C(C)(C)C (centres undefined) ?
Result :: 53.8 µM

Query :: Which TGI is listed for CC(C)c1cccc(C(=O)NCCN(C)C)c1[N+](=O)[O-] ?
Result :: > 100 µM

Query :: Which TGI is listed for O=[N+]([O-])c1ccc2c(c1)nc(Cc1ccc(Cl)cc1)n2C[C@@H]1CCCN2CCCCC12 (some centres undefined) ?
Result :: 30.7 µM

Query :: Which TGI is listed for O[C@H]1[C@H]2[C@H](O)C[C@H](CCOCc3ccccc3)CN2C[C@H]1O ?
Result :: > 100 µM
